Numbers sourced from patent US20250367193A1.

# System Tested: CDK2 (Homo sapiens)
# Construct: High-Throughput Measurement of Cellular Endogenous CDK2; endogenous in cells
# Method Notes: Inhibition of CDK2: phospho-Rb (S807/811) HTRF measurement in cells
# Condition Info: OVCAR3 cells (CDK2 dependent cell line), 24 h compound treatment, read-out: pRb
# Description: Phosphorylation of RB protein at S807/811 are measured using HTRF phospho-RB cellular kits (Cat #64RBS807PEG) from Cisbio. On Day 1, OVCAR3 (CDK2 dependent cell line) cells are seeded into 96-well tissue-culture treated plates at 20,000 cells/well in 200 μL and incubated overnight at 37° C. in CO2 atmosphere. […] Detection plates are incubated for 4 h at room temperature and read on ClarioStar (BMG Labtech) in TR-FRET mode (665 nM and 620 nM). […]
pIC50: −log10 of the molar value.
Recorded Endpoint: pIC50

Recorded result, Cn1nc(N2CCC(=O)NC2=O)c2ccc(C3CCN(CC4CCN(S(=O)(=O)c5ccc(Nc6ncc(C(F)(F)F)c(O[C@H]7CCC[C@H]7O)n6)cc5)CC4)CC3)cc21 (racemic) , pIC50: 6.30 to 7.00

Recorded result, Cn1nc(N2CCC(=O)NC2=O)c2ccc(C3CCN(Cc4cccc(S(=O)(=O)N5CCC(Nc6ncc(C(F)(F)F)c(N7CCCCC7)n6)CC5)c4)CC3)cc21 , pIC50: 6.30 to 7.00

###

# System Tested: CDK2 (Homo sapiens, UniProt P24941)
# Construct: High-Throughput Measurement of Cellular Endogenous CDK2; endogenous in cells
# Method Notes: Inhibition of CDK2: phospho-Rb (S807/811) HTRF measurement in cells
# Condition Info: OVCAR3 cells (CDK2 dependent cell line), 24 h compound treatment, read-out: pRb
The entries below are paired with their reported IC50.

# example entries with known answers
{"columns": ["Molecule", "IC50"],
 "data": [
  ["Cn1nc(N2CCC(=O)NC2=O)c2ccc(C3CCN(Cc4cccc(S(=O)(=O)N5CCC(Nc6ncc(C(F)(F)F)c(OC7CCC7)n6)CC5)c4)CC3)cc21", "28 to 100 nM"],
  ["Cn1nc(N2CCC(=O)NC2=O)c2ccc(C3CCN(Cc4cccc(S(=O)(=O)N5CCC(Nc6ncc(C(F)(F)F)c(O[C@@H]7CCC[C@@H]7O)n6)CC5)c4)CC3)cc21 (racemic)", "28 to 100 nM"],
  ["Cn1nc(N2CCC(=O)NC2=O)c2ccc(C3CCN(Cc4cccc(S(=O)(=O)N5CCC(Nc6ncc(C(F)(F)F)c(N7CCCC7)n6)CC5)c4)CC3)cc21", "100 to 500 nM"]
]}

Recorded result, Cn1nc(N2CCC(=O)NC2=O)c2ccc(C3CCN(Cc4cccc(S(=O)(=O)N5CCC(Nc6ncc(C(F)(F)F)c(OC7CCCC7)n6)CC5)c4)CC3)cc21 , IC50: 28 to 100 nM
